FYI, the data here is from paper PMC7144022.

Provide the reported EC50 of each item.
- Tested on: BVDV NADL virus
- PROTOCOL_DESCRIPTION: CPE-based antiviral assay, BVDV NADL in MDBK cells (MTS/PMS)
- REPORTED_CONDITIONS: Bovine viral diarrhea virus isolates and strains, MDBK, 72 h
Numbers only, in µM.

Example cases with answers are listed next.
COMPOUND	MEASURED_VALUE
COc1ccc2nc(NC(=O)c3cc(-c4ccccc4)nc4ccccc34)sc2c1	0.3
Cc1ccc2nc(NC(=O)c3nccn3C)sc2c1	46
O=C(Nc1ccn(-c2ccccc2)n1)c1cc(-c2ccccc2Cl)nc2ccccc12	0.4
O=C(Nc1nc2ccc(Cl)cc2s1)c1cc(-c2ccccc2)nc2ccccc12	0.5
COc1ccc(-c2cc(C(=O)Nc3ccn(-c4ccccc4)n3)c3ccccc3n2)cc1	0.3
O=C(Nc1ccn(-c2ccc(Cl)cc2)n1)c1cc(-c2ccco2)nc2c(F)cccc12	0.2
Cc1ccc2nc(NC(=O)c3ccnc4ccccc34)sc2c1 [CSFC-17, Cc1ccc2nc(sc2c1)NC(=O)c4ccnc3ccccc34]	100
O=C(Nc1nc2cc(Cl)ccc2s1)c1cc(-c2ccco2)nc2ccccc12	100
Cc1cccc2sc(NC(=O)c3cc(-c4cccs4)nc4c(F)cccc34)nc12	0.3
Cc1cccc2sc(NC(=O)c3cc(-c4ccc(F)cc4)nc4ccccc34)nc12	0.2

Would you mind listing EC50 for each of the following compounds?
1. COc1ccc2nc(NC(=O)c3cc(-c4ccsc4)nc4ccccc34)sc2c1
2. O=C(Nc1nnc(-c2ccccc2)s1)c1cc(-c2cccs2)nc2ccc(F)cc12
3. COc1ccc(-c2cc(C(=O)Nc3nc4c(C)cccc4s3)c3ccccc3n2)cc1F
4. Cc1csc(-c2cc(C(=O)Nc3ccn(-c4ccccc4)n3)c3ccccc3n2)c1
5. Cc1cccc2sc(NC(=O)c3cc(-c4ccco4)nc4ccc(F)cc34)nc12

0.2
2.3
2.5
1.2
0.1

Would you mind listing EC50 for each of the following compounds?
1. O=C(Nc1ccn(-c2cc(F)cc(F)c2)n1)c1cc(-c2ccccc2)nc2ccccc12
2. Cc1sc(NC(=O)c2cc(-c3ccccc3)nc3ccccc23)nc1-c1ccccc1

1. 0.02
2. 0.3

====

Provide the reported CC50 at 5 days of each item.
- PROTOCOL_DESCRIPTION: Cytotoxicity assay, proliferation of exponentially growing MDBK cells (MTS/PMS)
- Assay type: cell-based, bovine
- REPORTED_CONDITIONS: bovine

Example cases with answers are listed next.
MOLECULE	CC50 at 5 days
Cc1cccc2sc(NC(=O)c3cc(-c4cccs4)nc4c(Cl)cccc34)nc12 [CSFC-98]	> 100 µM
O=C(Nc1nc2ccc([N+](=O)[O-])cc2s1)c1cc(-c2ccccc2)nc2ccccc12 [CSFC-12]	46.8 µM
O=C(Nc1ccn(-c2cccc(F)c2)n1)c1cc(-c2ccccc2)nc2ccccc12 [CSFC-126]	> 100 µM
O=C(Nc1ccncc1)c1cc(-c2ccccc2)nc2ccccc12 [CSFC-8, O=C(Nc1ccncc1)c1cc(nc2ccccc21)c1ccccc1]	> 100 µM
Cc1ccccc1-n1ccc(NC(=O)c2cc(-c3ccccc3)nc3ccccc23)n1 [CSFC-142]	23 µM
Cc1ccc(-c2csc(NC(=O)c3cc(-c4ccccc4)nc4ccccc34)n2)cc1 [CSFC-114]	> 100 µM
Cn1c(NC(=O)c2cc(-c3ccccc3)nc3ccccc23)nc2ccccc21 [CSFC-4]	> 100 µM
Cc1cccc2sc(NC(=O)c3cc(-c4cc(Cl)sc4Cl)nc4ccccc34)nc12 [CSFC-85]	> 100 µM
Cc1ccc2nc(NC(=O)c3cccc4ccccc34)sc2c1 [CSFC-24, Cc1ccc2nc(NC(=O)c3cccc4ccccc43)sc2c1]	> 100 µM
Cc1cccc2sc(NC(=O)c3cc(-c4ccco4)nc4ccc(C(F)(F)OF)cc34)nc12 [CSFC-79]	> 100 µM

Would you mind listing CC50 at 5 days for each of the following molecules?
1. COc1ccc2nc(NC(=O)c3cc(-c4ccco4)nc4ccccc34)sc2c1 [CSFC-38]
2. Cc1csc(-c2cc(C(=O)Nc3ccn(-c4ccccc4)n3)c3ccccc3n2)c1 [CSFC-52]
3. O=C(Nc1ccn(-c2ccc(F)cc2)n1)c1cc(-c2ccccc2)nc2ccccc12 [CSFC-128]
4. COc1ccc2nc(NC(=O)c3cc(-c4ccco4)nc4ccc(C)cc34)sc2c1 [CSFC-73]
5. O=C(Nc1nc2c(F)cc(Br)cc2s1)c1cc(-c2ccccc2)nc2ccccc12 [CSFC-147]

> 100 µM
> 100 µM
> 100 µM
> 100 µM
6.2 µM

Would you mind listing CC50 at 5 days for each of the following molecules?
1. COc1ccc2nc(NC(=O)c3cc(-c4ccco4)nc4c(C)cc(C)cc34)sc2c1 [CSFC-65]
2. O=C(Nc1nc2cc(Cl)ccc2s1)c1cc(-c2ccco2)nc2ccccc12 [CSFC-55]

1. > 100 µM
2. > 100 µM
